biological target: human BACE1 (Homo sapiens); experiment: Fluorescent kinetic assay, human BACE1 (FRET peptide substrate WABC-6); assay type: biochemical; conditions: fluorescent kinetic assay, 25 μM substrate WABC-6, pH 4.5, room temperature; read-out: IC50 (μM) BACE 1;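 note: fluorescence monitored at excitation 320 nm and emission 420 nm over 30 min, with the substrate cleavage rate taken as the linear slope of the signal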
Sequence (P56817 46-501): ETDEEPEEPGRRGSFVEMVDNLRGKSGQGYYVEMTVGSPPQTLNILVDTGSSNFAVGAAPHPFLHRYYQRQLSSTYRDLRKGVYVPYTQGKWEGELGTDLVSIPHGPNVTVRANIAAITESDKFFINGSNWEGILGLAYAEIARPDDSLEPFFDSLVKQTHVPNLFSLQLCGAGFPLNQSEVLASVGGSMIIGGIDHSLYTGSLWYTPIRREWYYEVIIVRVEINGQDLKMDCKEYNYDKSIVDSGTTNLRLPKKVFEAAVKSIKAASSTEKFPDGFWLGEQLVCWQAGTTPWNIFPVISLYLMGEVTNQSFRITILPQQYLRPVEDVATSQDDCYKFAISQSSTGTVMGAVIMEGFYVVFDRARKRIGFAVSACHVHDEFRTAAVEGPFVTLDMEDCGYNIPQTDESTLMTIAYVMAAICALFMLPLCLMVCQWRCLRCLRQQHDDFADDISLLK
QUANTITY MEASURED: IC50

| SMI | RESULT |
| --- | --- |
| CC(C)c1ccc(-c2ccc(-c3ccccc3)n2CC(=O)N=C(N)NCCCO)cc1 | 0.11 to 1 µM |
| N#Cc1ccc(-c2ccc(-c3ccccc3)n2CC(=O)N=C(N)NCCCO)cc1 | 1.1 to 5 µM |
| C=CCCOc1ccc(-c2ccc(-c3ccccc3)n2CC(=O)N=C(N)N)cc1 | 1.1 to 5 µM |
| COCCCNC(N)=NC(=O)Cn1c(-c2ccccc2)ccc1C12CC3CC(CC(C3)C1)C2 | 0.11 to 1 µM |
